Target chain: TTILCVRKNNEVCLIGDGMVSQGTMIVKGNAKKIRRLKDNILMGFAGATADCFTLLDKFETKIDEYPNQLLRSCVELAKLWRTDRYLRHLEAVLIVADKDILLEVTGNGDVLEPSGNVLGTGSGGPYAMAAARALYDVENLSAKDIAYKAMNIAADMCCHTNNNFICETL
recorded endpoint: Ki (µM)

input smiles: CCn1nc(-c2ccc(C(=O)OC)cc2)nc2c(=O)n(C)c(=O)nc1-2
recorded endpoint: Ki
reported result: 0.44
